Reported Metabolic active MRC-5 cells (%) values follow for various compounds
system: human diploid embryonic lung cell line MRC-5; test: XTT cytotoxicity assay on MRC-5 cells; type: cell-based; conditions: 30 µM, XTT
VALUE KIND: Metabolic active MRC-5 cells (%)

> print(dat)
                            given.smiles                        value.kind  data.value
 1    CCCCCCCCCCCCC#Cc1cc(=O)c2ccccc2n1C  Metabolic active MRC-5 cells (%)        98.1
 2        CCCCCCC#CCCc1cc(=O)c2ccccc2n1C  Metabolic active MRC-5 cells (%)        98.4
 3  CCCCCCCCCCCCC#CCCc1cc(=O)c2ccccc2n1C  Metabolic active MRC-5 cells (%)        92.2
 4   CCCCCCCCC#CCCc1cc(=O)c2ccccc2n1CCCC  Metabolic active MRC-5 cells (%)        89.7
 5   CCCCCCCCCCC#CCCc1cc(=O)c2ccccc2n1CC  Metabolic active MRC-5 cells (%)        95.4
 6      CCCCCCC#CCCc1cc(=O)c2ccccc2n1CCC  Metabolic active MRC-5 cells (%)         102
 7       CCCCCCCC#CCCc1cc(=O)c2ccccc2n1C  Metabolic active MRC-5 cells (%)        99.8
 8      CCCCCCCCC#Cc1cc(=O)c2ccccc2n1CCC  Metabolic active MRC-5 cells (%)         101
 9       CCCCCCCCC#Cc1cc(=O)c2ccccc2n1CC  Metabolic active MRC-5 cells (%)        98.7
10     CCCCCCCCC#CCCc1cc(=O)c2ccccc2n1CC  Metabolic active MRC-5 cells (%)        95.1
11       CCCCCCC#CCCc1cc(=O)c2ccccc2n1CC  Metabolic active MRC-5 cells (%)         100
12      CCCCCCCCC#CCCc1cc(=O)c2ccccc2n1C  Metabolic active MRC-5 cells (%)        96.7
13      CCCCCCCC#CCCc1cc(=O)c2ccccc2n1CC  Metabolic active MRC-5 cells (%)         101
14     CCCCCCCC#CCCc1cc(=O)c2ccccc2n1CCC  Metabolic active MRC-5 cells (%)         101
15  CCCCCCCCCCC#CCCc1cc(=O)c2ccccc2n1CCC  Metabolic active MRC-5 cells (%)        67.9
16    CCCCCCCCC#CCCc1cc(=O)c2ccccc2n1CCC  Metabolic active MRC-5 cells (%)        99.1

====

Reported Metabolic active MRC-5 cells (%) values follow for various compounds
tested on: human diploid embryonic lung cell line MRC-5; test: XTT cytotoxicity assay on MRC-5 cells; assay type: cell-based; details: 100 µM, XTT
VALUE KIND: Metabolic active MRC-5 cells (%)

> print(dat)
                            given.smiles                        value.kind  data.value
 1    CCCCCCCCCCC#CCCc1cc(=O)c2ccccc2n1C  Metabolic active MRC-5 cells (%)        90.7
 2        CCCCCCC#CCCc1cc(=O)c2ccccc2n1C  Metabolic active MRC-5 cells (%)        89.3
 3    CCCCCCCCC#CCCc1cc(=O)c2ccccc2n1CCC  Metabolic active MRC-5 cells (%)         9.0
 4  CCCCCCCCCCCCC#CCCc1cc(=O)c2ccccc2n1C  Metabolic active MRC-5 cells (%)        41.5
 5       CCCCCCCCC#Cc1cc(=O)c2ccccc2n1CC  Metabolic active MRC-5 cells (%)        12.1
 6    CCCCCCCCCCCCC#Cc1cc(=O)c2ccccc2n1C  Metabolic active MRC-5 cells (%)        95.7
 7      CCCCCCC#CCCc1cc(=O)c2ccccc2n1CCC  Metabolic active MRC-5 cells (%)         100
 8   CCCCCCCCC#CCCc1cc(=O)c2ccccc2n1CCCC  Metabolic active MRC-5 cells (%)         0.4
 9       CCCCCCCC#CCCc1cc(=O)c2ccccc2n1C  Metabolic active MRC-5 cells (%)        97.3
10      CCCCCCCCCCC#Cc1cc(=O)c2ccccc2n1C  Metabolic active MRC-5 cells (%)         100
11     CCCCCCCC#CCCc1cc(=O)c2ccccc2n1CCC  Metabolic active MRC-5 cells (%)        70.9
12     CCCCCCCCC#CCCc1cc(=O)c2ccccc2n1CC  Metabolic active MRC-5 cells (%)        74.8
